# reported MIC; entries follow
# Tested on: Salmonella typhimurium IFO 12529
# Type: cell-based
# measurement conditions: Salmonella enterica; agar dilution; DY medium, pH unadjusted; approx. 10^6 CFU/ml; read-out: Minimum Inhibitory Conc. (MIC)
property: MIC

>>> df
                                   compound  recorded_result
0  CN1C(=O)C[C@H](CCCNC(=N)N)NC(=O)[C@H]1CNC(=N)NC(N)=O [TAN-1057C]      > 100 µg/mL
1  CN(C(=O)C[C@@H](N)CCCNC(=N)N)[C@H]1CNC(NC(N)=O)=NC1=O [TAN-1057A]        100 µg/mL
2  CN1C(=O)C[C@H](CCCNC(=N)N)NC(=O)[C@@H]1CNC(=N)NC(N)=O [TAN-1057D]      > 100 µg/mL
3  CN(C(=O)C[C@@H](N)CCCNC(=N)N)[C@@H]1CNC(NC(N)=O)=NC1=O [TAN-1057B]      > 100 µg/mL

====

# assay name: Solubility
# Type: physicochemical
# measurement conditions: methanol
Where a name gives a salt, the structure may show the parent alone.
property: Solubility

                                   compound  recorded_result
0  CN(C(=O)C[C@@H](N)CCCNC(=N)N)[C@H]1CNC(NC(N)=O)=NC1=O [TAN-1057A trihydrochloride]          Soluble
1  CN(C(=O)C[C@@H](N)CCCNC(=N)N)[C@@H]1CNC(NC(N)=O)=NC1=O [TAN-1057B dihydrochloride]          Soluble
2  CN1C(=O)C[C@H](CCCNC(=N)N)NC(=O)[C@H]1CNC(=N)NC(N)=O [TAN-1057C dihydrochloride]          Soluble
3  CN1C(=O)C[C@H](CCCNC(=N)N)NC(=O)[C@@H]1CNC(=N)NC(N)=O [TAN-1057D dihydrochloride]          Soluble

====

# assay name: Acute toxicity in mice (Table 7)
# measurement conditions: mouse, in vivo, ip, Intraperitoneal
property: LD50

>>> df
                                   compound  recorded_result
0  CN(C(=O)C[C@@H](N)CCCNC(=N)N)[C@H]1CNC(NC(N)=O)=NC1=O [TAN-1057A]       ~100 mg/kg

====

# assay name: Acute toxicity in mice (Table 7)
# measurement conditions: mouse, in vivo, Oral
property: LD50

>>> print(df.to_string())
                                   compound  recorded_result
0  CN(C(=O)C[C@@H](N)CCCNC(=N)N)[C@H]1CNC(NC(N)=O)=NC1=O [TAN-1057A]      > 400 mg/kg

Data origin, for the record: patent US4971965A
